Reported values of growth for individual entries
- Tested on: OVCAR-5 ovarian
- assay: NCI-60 one-dose screen, 48 h (100 = growth as untreated, 0 = no growth, -100 = all killed)
- condition description: 10 µM unless noted
Compounds without any hit were thinned out: in the full panel of roughly 83,000, 20% have a hit.
Unit % implied. Number only.

1) N#C/C(=C\c1ccc(F)cc1)n1nc2cccc(F)c2n1; 79.7
2) COc1ccc(C(=O)n2nc(-c3ccccc3)nc2N)cc1OC; 96.7
3) CN1C(=O)CNC(=O)[C@H](NC(=O)c2nc3ccccc3cc2O)CSSC[C@H]1C(=O)NCCc1nc2ccccc2cc1O; 129
4) Nc1nc(-c2cccc3ccccc23)cc2ccccc12; 20.9
5) COc1nc2ccc(C)cc2cc1-c1nc2c(cnn2-c2ccccc2)c(=O)[nH]1; 94.5

Value of growth reported for the compound CNC(=O)c1cc(-n2ccc3cc(NC(=O)c4ccc(N5CCOCC5)c(C(F)(F)F)c4)ccc32)ccn1 is 79.1

Value of growth reported for the compound Cc1ccc(-c2nc(N3CCN(CC(=O)Nc4ccc(Cl)c(C(F)(F)F)c4)CC3)c3ccccc3n2)cc1 is 89.9

Value of growth reported for the compound CSc1ncccc1C(=O)OCC(=O)Nc1oc(C)c2c(C)n[nH]c(=O)c12 is 94.3

Value of growth reported for the compound CCc1cccc2c3c(sc12)C(c1ccc(F)cc1)C(C#N)=C(N)O3 (stereo unspecified) is 32.6

Value of growth reported for the compound O=C(N/N=C/[C@H](O)[C@@H](O)[C@@H](O)[C@H](O)CO)c1ccc(NC(=O)c2cccnc2)cc1 is 106

Value of growth reported for the compound O=c1c2cccc(Cl)c2sc2c(NCCCNCCO)nc3ccccc3c12 is 62.5

---

- System: OVCAR-3 ovarian
- assay: NCI-60 one-dose screen, 48 h
- condition description: 10 µM unless noted
The panel holds about 83,000 compounds, 20% with a hit somewhere; the sample as a whole holds those more often. The source made the active and inactive calls. Rule for the calls: active = growth percent below 10; inactive = the rest.
Returns: one label drawn from 1.0 = active, 0.0 = inactive

1. CCOc1cccc(NC2=C(Br)C(=O)C(C)=C(C)C2=O)c1; 0.0
2. Fc1cc(-c2nnc3n2NC(=Nc2ccc(Cl)cc2)CS3)c(Cl)cc1Cl; 0.0
3. Cc1cc2[nH]c(=O)c3c4ncccc4cn3c2cc1C; 1.0
4. Cc1[nH]c(C(=O)Nc2ccc(C(=O)N3CCNCC3)cc2OC(C)C)c(Cl)c1Cl; 0.0
5. Nc1cc2c(cc1Br)-c1cc(Cl)ccc1C2=O; 0.0
6. COc1ccc(-c2cc(-c3cc(OC)c(OC)c(OC)c3)nc(N3CCOCC3)c2C#N)cc1; 0.0

[Q] State the result this test recorded for COc1ccc(/C=C(/C#N)n2nnc3cccc(F)c32)cc1 .
[A] 1.0

[Q] State the result this test recorded for COc1ccc(C2NC(=O)C(C#N)c3c2sc2c(F)cccc32)c(OC)c1 (stereo unspecified) .
[A] 0.0

[Q] State the result this test recorded for O=c1n(Cc2ccc3ccccc3c2)ccn1Cc1ccc2ccccc2c1 .
[A] 0.0

[Q] State the result this test recorded for NCCCNc1nc2ccccc2c2c(=O)c3cc(OC(F)(F)F)ccc3sc12 .
[A] 1.0

[Q] State the result this test recorded for N#Cc1ccc(NC(=O)c2sc3nc4c(cc3c2N)C(=O)CCC4)cc1 .
[A] 0.0

---

- Test system: A549/ATCC NSCLC
- assay: NCI-60 one-dose screen, 48 h
- condition description: 10 µM unless noted
This is part of a sample that, as a whole, favours compounds with a hit. Of some 83,000 tested, about 20% had one in any assay. Calls of active or inactive are those of the source. The calls were made as follows: active = growth percent below 10; inactive = the rest.
Returns: one label drawn from TRUE = active, FALSE = inactive

[Q] State the result this test recorded for CC(=O)O.CN1[CH-]N(Cc2ccc(C#N)cc2)c2ccccc21.[Ag+] .
[A] FALSE

[Q] State the result this test recorded for COc1nc2ccccc2cc1-c1nc2c(cnn2-c2ccccc2)c(=O)[nH]1 .
[A] FALSE

[Q] State the result this test recorded for CCN(CC)CCNc1nc2ccccc2c2c(=O)c3cc(Cl)ccc3sc12 .
[A] FALSE

[Q] State the result this test recorded for COc1ccc(/C=C(\C#N)n2nnc3c(F)cccc32)cc1 .
[A] FALSE

[Q] State the result this test recorded for O=C(Nc1ccc(OS(=O)(=O)c2ccc(F)cc2)cc1)c1ccc(Cl)cc1 .
[A] FALSE

---

- Tested on: SW-620 colon
- assay: NCI-60 one-dose screen, 48 h
- condition description: 10 µM unless noted
About 83,000 compounds went through this panel and 20% of them were active in at least one assay; those are over-represented in the sample as a whole. Active and inactive are the calls of the source. How the source made its calls: active means growth percent below 10; inactive means the rest.
Returns: one label drawn from True for active, False for inactive

Worked examples, 10 compounds total:
1. Cc1ccc(-c2cnc3sc(C(=O)NCCc4ccccc4)c(C)n23)cc1; False
2. c1cc2nc(-c3cn[nH]c3)c3c(c2cc1-c1cn[nH]c1)C1CCC3C1 (stereo unspecified); False
3. CCCCNC(=O)Oc1ccc(/C(=C(\C)c2ccc(Cl)cc2)c2ccc(OCCN3CCCCC3)cc2)cc1; False
4. NC(=O)C1(Nc2ccc(Br)cc2)CCCC1; False
5. COc1cccc(OC)c1C(=O)N[C@@H]1C(=O)N2[C@@H]1SC(C)(C)[C@@H]2C(=O)O; False
6. CC1(C)C2CC1C1(/C=N/NC(N)=S)C(C2)C(C#N)(C#N)C1(C#N)C#N (stereo unspecified); False
7. CN1CCN(c2ccc(-c3cnc4c(-c5csc6ccccc56)cnn4c3)cc2)CC1; True
8. COc1ccc2sc3c(NCCCN(C)C)nc4ccccc4c3c(=O)c2c1; True
9. COc1cc(C2CC(c3ccc(N(C)C)cc3)=NN2C(C)=O)cc(OC)c1OC (stereo unspecified); False
10. Cc1ccc(C(=O)NN2C(=O)CSC2c2cccc([N+](=O)[O-])c2)cn1 (stereo unspecified); False

[Q] State the result this test recorded for CCN(CC)S(=O)(=O)c1ccc(NC(=O)CSc2nnc(C)n2-c2ccccc2)cc1 .
[A] False

---

- Tested on: A549/ATCC NSCLC
- assay: NCI-60 one-dose screen, 48 h
- condition description: 10 µM unless noted
Compounds without any hit were thinned out: in the full panel of roughly 83,000, 20% have a hit. Activity calls are given as the source filed them. Rule for the calls: active = growth percent below 10; inactive = the rest.
Returns: one label drawn from class 1 = active, class 0 = inactive

Worked examples, 2 molecules total:
1. COc1cc(/C=C2\C(=O)Nc3ccc(Br)cc32)cc(OC)c1OC; class 1
2. COc1cc(CNS(=O)(=O)c2ccc(C)cc2)ccc1OCc1cn(-c2ccccc2)nn1; class 0

API: the following record is the query input.
[Q] State the result this test recorded for CCN1C(=O)N(CC)C2Nn3c(s/c(=C4\C(=O)N(CC(C)C)c5ccccc54)c3=O)=NC21 (stereo not drawn) .
[A] class 0

---

- Test system: KM12 colon
- assay: NCI-60 one-dose screen, 48 h (100 = growth as untreated, 0 = no growth, -100 = all killed)
- condition description: 10 µM unless noted
- Protocol: Growth inhibition of the KM12 human tumor cell line is measured as a screen for anti-cancer activity. Cells are grown in 96 well plates and exposed to the test compound for 48 hours. Compounds are tested at a single concentration, which is 10^-5 M for most compounds. The reported endpoint is percent growth (GI% or GIPRCNT), where numbers from 0 - 100% represent growth inhibition, and numbers from -100% - 0 represent cell death. For example, a value of 40 represents 60% growth inhibition. […]
Compounds without any hit were thinned out: in the full panel of roughly 83,000, 20% have a hit.
Reported values of growth for individual entries
Unit % implied. Number only.

Solved cases below.
1. c1cc(-c2nnc(SSc3ncnc4nc[nH]c34)o2)ccn1; 45.8
2. Nc1nc2ccccc2c2c(=O)c3cc(F)ccc3sc12; 99
3. Cc1nc2ccccc2c(/C=C/c2ccccc2)c1C(=O)/C=C/c1ccc(C(F)(F)F)cc1; -58.9

Value of growth reported for the compound O=C(O)CCC(=O)Nc1nnc(-c2ccccc2)s1 is 103

Value of growth reported for the compound O=c1ccn(Cc2cn(-c3c4ccccc4nc4ccccc34)nn2)c(=O)[nH]1 is 104

Value of growth reported for the compound CC1=C([Se]CC(OC(=O)[C@@H](CSSC(C)(C)C)NC(=O)OC(C)(C)C)C(=O)NC(C)(C)C)C(=O)c2ccccc2C1=O (stereo partly drawn) is -97.7

Value of growth reported for the compound CCOC(=O)c1[nH]c(C)c(C(=O)OCc2ccccc2C#N)c1C is 42.8

Value of growth reported for the compound C[C@]12CC[C@@H]3c4cc(OC(F)F)c(OS(N)(=O)=O)cc4CC[C@H]3[C@@H]1CC[C@@H]2OS(N)(=O)=O is 35.6

---

- Tested on: MDA-MB-231 breast
- assay: NCI-60 one-dose screen, 48 h
- condition description: 10 µM unless noted
- Experimental: Cells are grown in 96 well plates and exposed to the test compound for 48 hours. Compounds are tested at a single concentration, which is 10^-5 M for most compounds. The reported endpoint is percent growth (GI% or GIPRCNT), where numbers from 0 - 100% represent growth inhibition, and numbers from -100% - 0 represent cell death. For example, a value of 40 represents 60% growth inhibition. A value of 0 means no net growth occurred over the course of the experiment. […]
Compounds without any hit were thinned out: in the full panel of roughly 83,000, 20% have a hit. Calls of active or inactive are those of the source. The calls were made as follows: active = growth percent below 10; inactive = the rest.
Returns: one label drawn from active, inactive

Worked examples, 5 compounds total:
1. Cc1ccc(NC2=C(Cl)C(=O)c3nc(C)ccc3C2=O)cc1; active
2. COc1cc2cc(Oc3ccc(NC(=O)Nc4ccc(F)c(C(F)(F)F)c4)cc3)c(C)nc2cc1OCCN1CCOCC1; inactive
3. COc1cccc(-c2nc(-c3ccc(NC(=O)c4ccccc4)cc3)[nH]c2-c2ccnc(Br)c2)c1; inactive
4. CCn1cnc2c1c(=O)[nH]c(=O)n2CC1CCC(CNS(=O)(=O)c2ccc(OC3CCOCC3)c(F)c2)CC1 (configuration not stated); inactive
5. COc1ccc2nc(NCCCNCCO)c3sc4ccc(F)cc4c(=O)c3c2c1; active

[Q] State the result this test recorded for COc1ccc(C(=O)n2nc(-c3ccccc3)nc2N)cc1OC .
[A] inactive

[Q] State the result this test recorded for CC1=C(C)C(=O)C(Nc2cccc(C(=O)OC(C)(C)C)c2)=C(Br)C1=O .
[A] active
